Kindly state Rh (nm), hydrodynamic radius of micelles for each of the entries shown.
# experimental.details: Hydrodynamic radius and size distribution of micelles by dynamic light scattering (DLS)
# Format: physicochemical
# setup.conditions: detergent 1.0% by weight
Provide a numeric answer, followed by its unit.

Take a look at these entries with their results.
Incoming: // lookup Rh (nm), hydrodynamic radius of micelles for CCCCCCCCCCCCO[C@@H]1O[C@H](CO)[C@@H](O[C@H]2O[C@H](CO)[C@@H](O)[C@H](O)[C@H]2O)[C@H](O)[C@H]1O [DDM, n-dodecyl-β-D-maltopyranoside, reference compound]
Outgoing: 3.4 ± 0.03 nm

Incoming: // lookup Rh (nm), hydrodynamic radius of micelles for CCCCCCCCCOC[C@H](O[C@@H]1OC(CO)[C@@H](O[C@H]2OC(CO)[C@@H](O)C(O)C2O)C(O)C1O)[C@H](COCCCCCCCCC)O[C@@H]1OC(CO)[C@@H](O[C@H]2OC(CO)[C@@H](O)C(O)C2O)C(O)C1O (stereo partly shown) [A-BTM-C9]
Outgoing: 2.9 ± 0.04 nm

Incoming: // lookup Rh (nm), hydrodynamic radius of micelles for CCCCCCCCCCOC[C@@H](O[C@@H]1OC(CO)[C@@H](O[C@H]2OC(CO)[C@@H](O)C(O)C2O)C(O)C1O)[C@@H](COCCCCCCCCCC)O[C@@H]1OC(CO)[C@@H](O[C@H]2OC(CO)[C@@H](O)C(O)C2O)C(O)C1O (stereo partly shown) [B-BTM-C10]
Outgoing: 3.1 ± 0.07 nm

Continuing:
Incoming: // lookup Rh (nm), hydrodynamic radius of micelles for CCCCCCCCCCOC[C@H](O[C@@H]1OC(CO)[C@@H](O[C@H]2OC(CO)[C@@H](O)C(O)C2O)C(O)C1O)[C@H](COCCCCCCCCCC)O[C@@H]1OC(CO)[C@@H](O[C@H]2OC(CO)[C@@H](O)C(O)C2O)C(O)C1O (stereo partly shown) [A-BTM-C10]
Outgoing: 3.2 ± 0.07 nm

// data source = patent US11198704B2
